- measurement description: chemical genetic growth profiling, strain panel (AID 1159580);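 note: tested at 20 µM; growth read once vehicle control cultures reached saturation at 30 °C; 1 = growth at the plate median or of vehicle wells; lower values mean less growth of the strain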
- assay setup: S. cerevisiae deletion strains, growth OD, locus YPL051W, strain arl3
The whole screen tested about 5,500 compounds, of which about 2,000 (36%) were called active. Inconclusive results (about 18%) are left out. Cut-off read from the data, not from the text of the source: active = normalized growth mostly below about 0.91 (no sharp cut-off); inconclusive = no clear call, values can overlap the other calls; inactive = mostly above about 0.92. Some of the results follow.
Assign a class; possible classes are label 1 for active, label 0 for inactive

Some solved cases for reference:
O=C(O)c1ccccc1 = label 0
CC(=O)c1cc(CC=C(C)C)c(O)c(CC=C(C)C)c1 = label 0
CC(=O)OCC(=O)[C@@]1(O)[C@H](C)CC2C3CCC4=CC(=O)C=C[C@]4(C)[C@@]3(F)[C@@H](O)C[C@@]21C (some centres not stated) = label 0
N[C@@H](CCC(=O)N[C@@H](CS)C(=O)NCC(=O)O)C(=O)O = label 0
CC(C)c1ccc2c(c1)CCC1C(C)(C(N)=O)CCCC21C (configuration not stated) = label 1
NC(=O)c1cccnc1 = label 0

Task: Any idea what this test logged for NCC(N)C(=O)c1ccccc1 (configuration not stated) ?
Result: label 0

Task: Any idea what this test logged for NS(=O)(=O)c1cc2c(cc1Cl)NC(CSCc1ccccc1)=NS2(=O)=O ?
Result: label 0

Task: Any idea what this test logged for CC1=CCCC2C1(C)CCC(C)C2(C)CC/C(C)=C/C[n+]1cn(C)c2c(N)ncnc21 (configuration not stated) ?
Result: label 0

Task: Any idea what this test logged for CCCOc1ccc2nc(NC(=O)OC)[nH]c2c1 ?
Result: label 0

Task: Any idea what this test logged for CC(=O)c1ccc(O)c(CC=C(C)C)c1 ?
Result: label 0

Task: Any idea what this test logged for CC(Cc1cccc(C(F)(F)F)c1)NCCOC(=O)c1ccccc1 (configuration not stated) ?
Result: label 1

Task: Any idea what this test logged for C[C@H](CCC(=O)O)[C@H]1CCC2C3C(=O)CC4CC(=O)CC[C@]4(C)C3CC(=O)[C@@]21C (some centres not stated) ?
Result: label 0

Task: Any idea what this test logged for C[n+]1ccccc1/C=N/O ?
Result: label 0

Task: Any idea what this test logged for CC[N+](C)(C)c1cccc(O)c1 ?
Result: label 0

Task: Any idea what this test logged for CCCc1cc(=O)[nH]c(=S)[nH]1 ?
Result: label 0

Task: Any idea what this test logged for CO[C@H]1CC(O[C@@H]2/C(C)=C/C[C@@H]3C[C@@H](C[C@]4(CC[C@H](C)[C@@H](C5CCCCC5)O4)O3)OC(=O)[C@@H]3C=C(C)/C(=N\O)[C@H]4OC/C(=C\C=C\[C@@H]2C)[C@]43O)O[C@@H](C)C1O (some centres not stated) ?
Result: label 1

Task: Any idea what this test logged for O=C(O)c1cc(O)c2c(c1)[C@@H]([C@H]1c3cc(C(=O)O)cc(O)c3C(=O)c3c(O[C@H]4O[C@H](CO)[C@@H](O)[C@H](O)[C@H]4O)cccc31)c1cccc(O[C@H]3O[C@H](CO)[C@@H](O)[C@H](O)[C@H]3O)c1C2=O ?
Result: label 0

Task: Any idea what this test logged for CC(CCC(=O)O)[C@H]1CCC2C3CC[C@@H]4C[C@H](O)CC[C@]4(C)C3C=C[C@@]21C (some centres not stated) ?
Result: label 1

Task: Any idea what this test logged for O=C(NCO)c1cccnc1 ?
Result: label 0

Task: Any idea what this test logged for O=C(O)c1cccnc1 ?
Result: label 0

Task: Any idea what this test logged for CCCSc1ccc2nc(NC(=O)OC)[nH]c2c1 ?
Result: label 0

----------
- measurement description: chemical genetic growth profiling, strain panel (AID 1159580)
- assay setup: S. cerevisiae deletion strains, growth OD, locus YDR069C, strain doa4, hits give low values
Screen size: about 5,500 compounds; about 2,000 (36%) were called active. Not shown: some 18% with an inconclusive outcome. Some of the results follow.
quantity: normalized growth
Please state the value as a number alone, without comment.

Below, 4 molecules whose answers are already recorded.
NCC(=O)c1ccccc1 = 1.02
N=C(N)N = 0.983
O=C(CC(=O)c1ccccc1)c1ccccc1 = 0.0695
OC[C@H]1O[C@@H](O[C@H]2[C@H](O)[C@@H](O)[C@@H](O)O[C@@H]2CO)[C@H](O)[C@@H](O)[C@@H]1O = 0.981

molecule NC(Cn1ccc(=O)c(O)c1)C(=O)O (configuration not stated) , normalized growth observed: 1.02

molecule Cc1cc(=O)[nH]c(=S)[nH]1 , normalized growth observed: 0.982

molecule CCCc1cc(=O)[nH]c(=S)[nH]1 , normalized growth observed: 1.01

----------
- measurement description: chemical genetic growth profiling, strain panel (AID 1159580)
- assay setup: S. cerevisiae deletion strains, growth OD, locus YDR226W, strain ADK1
In all, about 5,500 compounds went through this assay and about 2,000 (36%) were called active. About 18% were inconclusive and are not listed. Rule as the data show it: active = normalized growth mostly below about 0.91 (no sharp cut-off); inconclusive = no clear call, values can overlap the other calls; inactive = mostly above about 0.92. The list shows a part of the results.
Assign a class; possible classes are yes (1) = active, no (0) = inactive

Some solved cases for reference:
Cc1c(C)c(C)c(C(=O)c2ccc(N=Cc3cc(Cl)cc(Cl)c3O)cc2)c(C)c1C = no (0)
CSc1sc(C(=O)Sc2ccccc2)cc1S(=O)(=O)C(C)C = no (0)
O=C(NOC(=O)c1ccccc1)c1ccccc1 = yes (1)
O=S(=O)(Oc1ccc(-c2csnn2)cc1)c1ccccc1Cl = no (0)
Clc1ccc(SCc2ccsc2-c2ncns2)cc1 = no (0)
CCOC(=O)/C(C#N)=C(\Nc1ccc(C(=O)OCC)cc1)SC = no (0)

Task: Any idea what this test logged for CC(=O)c1ccc(Cl)c(N=Cc2cc(Br)cc(Br)c2O)c1 ?
Result: yes (1)

Task: Any idea what this test logged for Cc1ccc(-c2csc(-c3ccncc3)n2)cc1 ?
Result: no (0)

Task: Any idea what this test logged for Cc1cc(/C(N)=N\OC(=O)C(C)(C)C)cc(/C(N)=N\OC(=O)C(C)(C)C)c1 ?
Result: no (0)

----------
- measurement description: chemical genetic growth profiling, strain panel (AID 1159580);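 note: tested at 20 µM; growth read once vehicle control cultures reached saturation at 30 °C; 1 = growth at the plate median or of vehicle wells; lower values mean less growth of the strain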
- assay setup: S. cerevisiae deletion strains, growth OD, locus YOR119C, strain RIO1
The whole screen tested about 5,500 compounds, of which about 2,000 (36%) were called active. Inconclusive results (about 18%) are left out. Rule as the data show it: active = normalized growth mostly below about 0.91 (no sharp cut-off); inconclusive = no clear call, values can overlap the other calls; inactive = mostly above about 0.92. This is one part of the list.
Assign a class; possible classes are active, inactive

Some solved cases for reference:
CCOC(=O)c1ccc(Cl)c(N=Cc2cc(Cl)cc(Cl)c2O)c1 = active
CSc1n[nH]c(-c2cc(C(C)(C)C)oc2C)c1C#N = inactive
Cc1ccc(-c2csc(-c3ccncc3)n2)cc1 = inactive
Cc1c(C)c(C)c(C(=O)c2ccc(N=Cc3cc(Cl)cc(Cl)c3O)cc2)c(C)c1C = active
Cc1onc(-c2c(F)cccc2Cl)c1/C(N)=N\OC(=O)c1ccc(C(C)(C)C)cc1 = inactive
O=C(Nc1cccc(Cl)c1)O/N=C1\CCCc2occc21 = inactive
Cc1ccc2nc(-c3ccc4c(c3)OCCO4)cn2c1 = inactive
CC(=O)c1ccc(Cl)c(N=Cc2cc(Cl)cc(Cl)c2O)c1 = active

Task: Any idea what this test logged for N#CSCC(=O)c1ccccc1 ?
Result: active

Task: Any idea what this test logged for O=S(=O)(Nc1ccccc1Oc1ccccc1)c1ccc(-c2ccno2)s1 ?
Result: inactive

Task: Any idea what this test logged for N/C(Cc1cccc2ccccc12)=N/OC(=O)c1ccc(Cl)cc1 ?
Result: inactive

----------
- measurement description: chemical genetic growth profiling, strain panel (AID 1159580);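 note: tested at 20 µM; growth read once vehicle control cultures reached saturation at 30 °C; 1 = growth at the plate median or of vehicle wells; lower values mean less growth of the strain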
- assay setup: S. cerevisiae deletion strains, growth OD, locus YDR054C, strain cdc34
Out of some 5,500 compounds screened, about 2,000 (36%) were called active. Not shown: some 18% with an inconclusive outcome. No stated cut-off is given here; in the data, active means normalized growth mostly below about 0.91 (no sharp cut-off); inconclusive means no clear call, values can overlap the other calls; inactive means mostly above about 0.92. This is one part of the list.
Assign a class; possible classes are label 1 = active, label 0 = inactive

CSc1n[nH]c(-c2cc(C(C)(C)C)oc2C)c1C#N = label 0
Cc1c(C)c(C)c(C(=O)c2ccc(N=Cc3cc(Cl)cc(Cl)c3O)cc2)c(C)c1C = label 0
CC(=O)c1ccc(Cl)c(N=Cc2cc(Br)cc(Br)c2O)c1 = label 1

Task: Any idea what this test logged for CSc1sc(C(=O)Sc2ccccc2)cc1S(=O)(=O)C(C)C ?
Result: label 0

Task: Any idea what this test logged for CCOC(=O)c1ccc(Cl)c(N=Cc2cc(Cl)cc(Cl)c2O)c1 ?
Result: label 0

Task: Any idea what this test logged for O=C1c2cccc3c(Sc4ccccc4)ccc(c23)C(=O)N1NCCO ?
Result: label 0

----------
- measurement description: chemical genetic growth profiling, strain panel (AID 1159580);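 note: tested at 20 µM; growth read once vehicle control cultures reached saturation at 30 °C; 1 = growth at the plate median or of vehicle wells; lower values mean less growth of the strain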
- assay setup: S. cerevisiae deletion strains, growth OD, locus YLR342W, strain FKS1 (second series)
Hit rate of the full screen: of about 5,500 compounds, about 2,000 (36%) were called active. About 18% were inconclusive and are not listed. No stated cut-off is given here; in the data, active means normalized growth mostly below about 0.91 (no sharp cut-off); inconclusive means no clear call, values can overlap the other calls; inactive means mostly above about 0.92. Some of the results follow.
Assign a class; possible classes are TRUE (active), FALSE (inactive)

CN(C)[C@@H]1C(=O)C(C(N)=O)=C(O)[C@@]2(O)C(=O)C3=C(O)c4c(O)ccc(Cl)c4[C@@](C)(O)[C@H]3C[C@@H]12 = FALSE
Nc1ccc(C(=O)O)cc1 = FALSE

Task: Any idea what this test logged for COC(=O)/C(=C1\OC(=O)C(c2ccccc2)=C1O)c1ccccc1 ?
Result: FALSE

Task: Any idea what this test logged for CC(=O)O[C@@H]1C=C[C@@]2(C)C(C[C@@H](OC(C)=O)[C@@]3(C)C4=CC(=O)O[C@@H](c5ccoc5)[C@]4(C)CCC23)C1(C)C (stereo partly drawn) ?
Result: FALSE

Task: Any idea what this test logged for COc1ccc2cc(CCC(C)=O)ccc2c1 ?
Result: FALSE

Task: Any idea what this test logged for CC(C)=CCc1c2c(c3occ(-c4ccc(O)c(O)c4)c(=O)c3c1O)C=CC(C)(C)O2 ?
Result: TRUE

Task: Any idea what this test logged for NC(Cn1ccc(=O)c(O)c1)C(=O)O (stereo not drawn) ?
Result: FALSE

Task: Any idea what this test logged for CC(=O)O[C@@H]1CC2C(C)(C)C(=O)C=C[C@]2(C)C2CC[C@]3(C)C(=CC(=O)O[C@H]3c3ccoc3)[C@@]21C (stereo partly drawn) ?
Result: FALSE
